Each recorded value in this set is attributed to patent US20030119895A1.

- Tested System: HER2 kinase (Homo sapiens, UniProt P04626)
- Construct: fused on or other part: The EGFR extracellular domain serves for EGF stimulation and for capture by mAb 05-101; The HER2 part carries the kinase domain; P00533 (Epidermal growth factor receptor)
- Sequence (P04626 720-987 limits assumed): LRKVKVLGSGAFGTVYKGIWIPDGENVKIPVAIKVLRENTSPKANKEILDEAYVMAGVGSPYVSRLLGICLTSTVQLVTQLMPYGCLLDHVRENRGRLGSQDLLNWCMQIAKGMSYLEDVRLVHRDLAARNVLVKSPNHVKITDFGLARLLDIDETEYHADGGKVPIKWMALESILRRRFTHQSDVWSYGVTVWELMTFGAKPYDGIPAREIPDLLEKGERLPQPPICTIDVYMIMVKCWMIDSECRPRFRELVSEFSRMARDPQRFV
- Experiment Description: HER-2 ELISA Assay 1: EGF Receptor-HER2 Chimeric Receptor Assay In Whole Cells
- Assay Setup: ELISA Assay Results
Experimental Readout: pIC50
Answers are plain numbers, as −log10 of the molar value.

See these solved cases before continuing.
{"Compound": "Cc1ccsc1C=C1C(=O)Nc2ccccc21", "Tested System": "HER2 kinase (Homo sapiens, UniProt P04626)", "pIC50": 4.15}
{"Compound": "O=C1Nc2ccccc2C1=Cc1ccc(N2CCCCC2)cc1", "Tested System": "HER2 kinase (Homo sapiens, UniProt P04626)", "pIC50": 4.03}
{"Compound": "Cc1csc(C=C2C(=O)Nc3ccccc32)c1", "Tested System": "HER2 kinase (Homo sapiens, UniProt P04626)", "pIC50": 4.05}
{"Compound": "CN1C(=O)C(=Cc2ccc(Br)cc2)c2ccccc21", "Tested System": "HER2 kinase (Homo sapiens, UniProt P04626)", "pIC50": 4.65}
{"Compound": "COc1ccc(C=C2C(=O)Nc3ccccc32)c(Cl)c1", "Tested System": "HER2 kinase (Homo sapiens, UniProt P04626)", "pIC50": 4.52}
{"Compound": "O=CN1CCN(c2ccc(C=C3C(=O)Nc4ccccc43)cc2)CC1", "Tested System": "HER2 kinase (Homo sapiens, UniProt P04626)", "pIC50": 4.04}
{"Compound": "CCOc1ccccc1C=C1C(=O)Nc2ccccc21 [SU5204, 3-(2-Ethoxybenzylidenyl]-2-indolinone]", "Tested System": "HER2 kinase (Homo sapiens, UniProt P04626)", "pIC50": 4.29}

Here's the next entry for you.
Query: pIC50; subject: `CN1C(=O)C(=Cc2ccc(N3CCOCC3)cc2)c2ccccc21`
Reply: 4.40
